Source: patent US20190359719A1

Here, each record is paired with measured pEC50 data.
biological target: T1, c-Met (HGF receptor) expressed on cells (human, UniProt P08581 25-1390); assay: flow cytometry, antibody titration on DU-145 prostate cancer cells, PE anti-human IgG
T1 construct: whole, on cells; Endogenous c-Met on tumour cell lines and on human umbilical vein endothelial cells
T1 sequence (P08581 25-1390): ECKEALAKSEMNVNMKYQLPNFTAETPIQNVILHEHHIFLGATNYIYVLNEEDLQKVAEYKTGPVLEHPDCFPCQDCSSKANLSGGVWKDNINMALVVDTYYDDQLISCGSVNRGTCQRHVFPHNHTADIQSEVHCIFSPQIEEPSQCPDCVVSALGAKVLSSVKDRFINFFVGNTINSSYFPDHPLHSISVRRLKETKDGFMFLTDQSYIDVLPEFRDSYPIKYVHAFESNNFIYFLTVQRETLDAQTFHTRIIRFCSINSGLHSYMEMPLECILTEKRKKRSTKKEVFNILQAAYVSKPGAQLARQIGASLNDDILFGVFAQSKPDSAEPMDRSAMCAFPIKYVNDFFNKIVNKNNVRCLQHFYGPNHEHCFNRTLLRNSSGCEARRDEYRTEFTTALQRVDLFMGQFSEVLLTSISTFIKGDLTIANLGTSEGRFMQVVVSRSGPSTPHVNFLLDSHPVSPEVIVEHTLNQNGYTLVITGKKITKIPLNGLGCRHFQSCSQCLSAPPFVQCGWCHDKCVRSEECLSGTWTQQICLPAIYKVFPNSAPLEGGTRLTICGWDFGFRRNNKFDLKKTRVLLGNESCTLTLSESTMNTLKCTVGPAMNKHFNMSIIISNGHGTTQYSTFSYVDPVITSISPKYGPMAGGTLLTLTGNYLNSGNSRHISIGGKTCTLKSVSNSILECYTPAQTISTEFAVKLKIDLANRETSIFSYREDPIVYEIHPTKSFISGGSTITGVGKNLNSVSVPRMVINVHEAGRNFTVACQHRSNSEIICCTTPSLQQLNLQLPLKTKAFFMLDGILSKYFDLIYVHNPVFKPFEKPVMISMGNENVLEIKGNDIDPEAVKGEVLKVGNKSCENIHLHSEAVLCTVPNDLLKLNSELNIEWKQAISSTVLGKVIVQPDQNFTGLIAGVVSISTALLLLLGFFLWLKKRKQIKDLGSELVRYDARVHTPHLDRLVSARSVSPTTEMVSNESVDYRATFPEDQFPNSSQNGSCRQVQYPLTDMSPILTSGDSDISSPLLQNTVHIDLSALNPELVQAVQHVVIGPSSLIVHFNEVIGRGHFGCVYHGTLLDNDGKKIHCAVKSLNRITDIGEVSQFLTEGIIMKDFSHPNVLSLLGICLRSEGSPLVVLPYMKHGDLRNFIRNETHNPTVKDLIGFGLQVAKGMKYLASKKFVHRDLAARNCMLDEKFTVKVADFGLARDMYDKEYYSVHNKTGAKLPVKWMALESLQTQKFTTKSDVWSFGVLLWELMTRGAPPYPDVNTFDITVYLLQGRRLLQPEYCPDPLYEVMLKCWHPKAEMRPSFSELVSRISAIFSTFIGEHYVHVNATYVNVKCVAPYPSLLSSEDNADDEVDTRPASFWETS
Formally, pEC50 is defined as -log10 of the concentration c, with c in mol/L.

• El-B13 (E1 derived anti-c-Met antibody) (antibody, V domains shown, Label 'El-B13' matched to 'GCE-B13' by suffix only; Detected with anti-human IgG; also called E1-B13; GCE-B13) VH: QVQLVQSGAEVKKPGASVKVSCKASGSTFSGDYIHWVRQAPGQGLEWMGWINPNSGGTNYAQKFQGRVTMTRDTSISTAYMELSRLRSDDTAVYYCAREPARDYYYYDGLDVWGQGTTVTVSS VL: QSVVTQPPSVSGAPGQRVTISCLGSASNIGAGHDVHWYQQLPGTAPKLLIYGNSNRPSGVPDRFSGSKSGTSASLAITGLQAEDEADYYCQSYSSSLSAVLFGTGTKVTVL = 9.60

Now turn to the next binder.
Field pEC50 (entry El-A11 (E1 derived anti-c-Met antibody) (antibody, V domains shown, Label 'El-A11' matched to 'GCE-A11' by suffix only; Detected with anti-human IgG; also called E1-A11; GCE-A11) VH: QVQLVQSGAEVKKPGASVKVSCKASGFTFSGDYIHWVRQAPGQGLEWMGWINPNSGGTNYAQKFQGRVTMTRDTSISTAYMELSRLRSDDTAVYYCAREPARDYYYYDGLDVWGQGTTVTVSS VL: QSVVTQPPSVSGAPGQRVTISCLGSSSNIGAGHDVHWYQQLPGTAPKLLIYGNSNRISGVPDRFSGSKSGTSASLAITGLQAEDEADYYCQSYSSSLSAYLFGTGTKVTVL ) reads 9.59
